# assayTarget: human recombinant adrenergic α1D receptor (Homo sapiens)
# Construct: expressed in transfected cells; host or cells: HEK-293
# Sequence (P25100 whole entry): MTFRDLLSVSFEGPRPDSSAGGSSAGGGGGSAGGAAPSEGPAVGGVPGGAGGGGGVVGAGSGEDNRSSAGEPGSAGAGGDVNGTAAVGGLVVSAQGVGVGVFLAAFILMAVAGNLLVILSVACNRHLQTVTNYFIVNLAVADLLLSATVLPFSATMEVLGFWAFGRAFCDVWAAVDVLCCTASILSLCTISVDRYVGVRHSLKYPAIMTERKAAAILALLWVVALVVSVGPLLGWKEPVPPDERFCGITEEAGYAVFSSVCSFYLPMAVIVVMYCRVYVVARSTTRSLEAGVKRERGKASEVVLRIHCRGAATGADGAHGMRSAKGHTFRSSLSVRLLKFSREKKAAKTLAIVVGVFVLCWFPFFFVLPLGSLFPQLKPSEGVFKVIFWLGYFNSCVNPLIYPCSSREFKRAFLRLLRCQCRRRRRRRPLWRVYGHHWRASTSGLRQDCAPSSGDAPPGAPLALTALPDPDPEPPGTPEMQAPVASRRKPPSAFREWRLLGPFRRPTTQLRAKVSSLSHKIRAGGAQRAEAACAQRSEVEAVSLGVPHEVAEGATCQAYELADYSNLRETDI
# experimentalDetails: Radioligand binding, adrenergic α1D ([3H]Prazosin)
# testConditions: 0.1 μM compound; read-out: Percentage inhibition of ligand binding, Adrenergic α1D
If the reported inhibition at 0.1 µM equals or exceeds 40%, assign 1. If not, assign -1.

For orientation, consider the following solved cases.
compound: C/C(=C\n1c2c(c3cc(C)ccc31)CN(C)CC2)C1CCCCC1
group: -1

compound: C/C(=C\n1c2c(c3cc(C)ccc31)CN(C)CC2)c1ccc2ccccc2c1
group: 1

compound: C/C=C(/c1ccccc1)n1c2c(c3cc(C)ccc31)CN(C)CC2
group: -1

compound: C/C(=C/n1c2c(c3cc(C)ccc31)CN(C)CC2)c1cnn(C)c1
group: 1

compound: C/C(=C/n1c2c(c3cc(C)ccc31)CN(C)CC2)c1cccc2[nH]ncc12
group: 1

Asked: In plain terms: is recorded inhibition at 0.1 µM at least 40% for Cc1ccc(C(C)(O)Cn2c3c(c4cc(Cl)ccc42)CN(C)CC3)cc1 (stereo not shown) ?
Given back: -1

Asked: Reported inhibition at 0.1 µM at or above 40%? C/C(=C\n1c2c(c3cc(C)ccc31)CN(C)CC2)c1ccc(Cl)c(Cl)c1
Given back: 1

Asked: Please indicate if the recorded inhibition at 0.1 µM for Cc1ccc(CCn2c3c(c4c(Cl)c(Cl)ccc42)CN(C)CC3)cn1 meets or exceeds 40%.
Given back: -1

Asked: Quick check, inhibition at 0.1 µM >= 40%? Cc1ccc2c(c1)c1c(n2/C=C/c2cnc3ccccc3c2)CCN(C)C1
Given back: 1

Asked: Kindly determine if inhibition at 0.1 µM recorded for C/C(=C/n1c2c(c3cc(C)ccc31)CN(C)CC2)c1ccc2ccccc2c1 is above or exactly 40%.
Given back: 1

Asked: Form field: inhibition at 0.1 µM at least 40%? Entry: C/C(=C\n1c2c(c3cc(C)ccc31)CCN(C)CC2)c1cccnc1
Given back: -1

---

# assayTarget: human recombinant adrenergic α2B receptor (Homo sapiens, UniProt P18089)
# Construct: expressed in transfected cells; host or cells: CHO-K1
# Sequence (P18089 1-450): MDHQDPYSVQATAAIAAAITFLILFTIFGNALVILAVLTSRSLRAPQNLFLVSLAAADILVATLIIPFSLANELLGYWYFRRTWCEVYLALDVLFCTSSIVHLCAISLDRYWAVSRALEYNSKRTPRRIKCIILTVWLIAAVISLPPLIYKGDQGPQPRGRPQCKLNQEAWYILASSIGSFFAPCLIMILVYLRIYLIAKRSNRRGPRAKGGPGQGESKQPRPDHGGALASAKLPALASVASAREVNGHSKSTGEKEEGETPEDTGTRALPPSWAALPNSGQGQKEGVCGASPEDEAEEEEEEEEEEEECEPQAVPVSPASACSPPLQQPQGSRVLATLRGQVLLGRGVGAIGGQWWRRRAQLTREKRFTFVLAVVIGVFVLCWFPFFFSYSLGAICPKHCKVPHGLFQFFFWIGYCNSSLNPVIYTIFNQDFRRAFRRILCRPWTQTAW
# experimentalDetails: Radioligand binding, adrenergic α2B ([3H]Rauwolscine)
# testConditions: compound at 0.03 μM; [3H]Rauwolscine; repeat datapoints each shown; 0.03 µM
measuredQuantity: Percentage inhibition of ligand binding, Adrenergic α2B (0.03 μM) (%)
Answers are plain numbers, in %.

Sample answers from the record:
compound: Cc1ccc2c(c1)c1c(n2CC(C)(O)c2cccnc2)C(O)CN(C)C1 (single isomer, unassigned) [II-151a]
assayTarget: human recombinant adrenergic α2B receptor (Homo sapiens, UniProt P18089)
resultNumber: 27

compound: Cc1cnc2c(c1)c1c(n2CC(C)(O)c2ccc(C)nc2)CCN2CCCC12 (single isomer, unassigned) [148a]
assayTarget: human recombinant adrenergic α2B receptor (Homo sapiens, UniProt P18089)
resultNumber: 52

compound: Cc1ccc2c(c1)c1c(n2CC(O)c2ccc(C#N)nc2)CCN(C)C1 (stereo not shown) [compound 140]
assayTarget: human recombinant adrenergic α2B receptor (Homo sapiens, UniProt P18089)
resultNumber: 49

compound: Cc1ccc2c(c1)c1c(n2CC(OC(=O)N(C)C)c2ccncc2)CCN(C)C1 (single isomer, unassigned) [141b]
assayTarget: human recombinant adrenergic α2B receptor (Homo sapiens, UniProt P18089)
resultNumber: 86

compound: CC(O)(Cn1c2c(c3cc(Cl)ccc31)C1CCCN1CC2)c1cccnc1 (single isomer, unassigned) [II-130a]
assayTarget: human recombinant adrenergic α2B receptor (Homo sapiens, UniProt P18089)
resultNumber: 103

compound: Cc1ccc2c(c1)c1c(n2CCc2ccc(C)nc2)CCN2CCCC12 (single isomer, unassigned) [197b]
assayTarget: human recombinant adrenergic α2B receptor (Homo sapiens, UniProt P18089)
resultNumber: 105

Could you report Percentage inhibition of ligand binding, Adrenergic α2B (0.03 μM) for every entry in the following list?
1. CC(O)(Cn1c2c(c3cc(Cl)ccc31)CN(C1CCC1)CC2)c1cccnc1 (single isomer, unassigned) [II-118b]
2. Cc1ccc2c(c1)c1c(n2CC(OC(=O)c2ccncc2)c2ccncc2)CCN(C)C1 (single isomer, unassigned) [147b]
3. CN1CCc2c(c3ccccc3n2CC(C)(O)c2cccnc2)C1 (single isomer, unassigned) [173b]
4. Cc1ccc(CCn2c3c(c4cc(Cl)cnc42)C2CCCN2CC3)cn1 (single isomer, unassigned) [137b]

Given back:
["−3", 93, 28, 30]

Reference source: patent US8791132B2
